test system: HeLa cells; test: Cell cycle assay in HeLa cells; assay type: cell-based, human; conditions: HeLa cells, 150 nM oligomeric compound, 24 hours, relative to untreated control (UTC = 100)
In the oligonucleotide strings, read from the 5' end, every base follows the letter of its sugar. An asterisk marks phosphorothioate; unmarked linkages are phosphodiester. Other units and linkages are bracketed, terminal groups are in braces. A string of capitals states the bases alone. e = 2'-O-(2-methoxyethyl) (MOE); [5mC] = 5-methylcytosine
measurement-label: % cells in cell cycle phase subG1 (%)
Answers are plain numbers, in %.

# example entries with known answers
# substance, measurement-label, measured-value
rows = [
    ("328119 (antisense eA*eA*eT*eA*eA*e[5mC]*eA*e[5mC]*eA*e[5mC]*eA*eT*e[5mC]*e[5mC]*eA*e[5mC]*eT*eT*eT*eA*eA) [compound 328119]", "% cells in cell cycle phase subG1", 75),
    ("338756 (antisense TGCCCTGCTCAGAGCCCTAG; all 2'-MOE, all phosphorothioate, methylation of C not given here) [compound 338756]", "% cells in cell cycle phase subG1", 137),
    ("328136 (eA*eA*e[5mC]*eT*eA*e[5mC]*eT*eT*e[5mC]*e[5mC]*eA*eG*eA*eG*e[5mC]*eA*eG*eG*eT*eG*eA; anti-miR) [compound 328136]", "% cells in cell cycle phase subG1", 330),
    ("327910 (antisense eT*eG*eA*eT*eA*eG*e[5mC]*e[5mC]*e[5mC]*eT*eG*eT*eA*e[5mC]*eA*eA*eT*eG*e[5mC]*eT*eG*e[5mC]*eT) [compound 327910]", "% cells in cell cycle phase subG1", 174),
]

# next substance below
Lab note: measured % cells in cell cycle phase subG1 of 327903 (antisense eA*eA*e[5mC]*eT*eA*eT*eA*e[5mC]*eA*eA*e[5mC]*e[5mC]*eT*eA*e[5mC]*eT*eA*e[5mC]*e[5mC]*eT*e[5mC]*eA) [compound 327903] was 118

====

Kindly state aneuploid (percentage of cells) for each of the entries shown.
tested on: BJ, B16-F10, T47D, T47Dp53 and HeLa cells; experiment: Cell cycle assay (propidium iodide flow cytometry), cell line panel; type: cell-based; details: 150 nM oligomeric compound, 4.5 μg/ml LIPOFECTIN, after 72 hours, propidium iodide flow cytometry
In the oligonucleotide strings, read from the 5' end, every base follows the letter of its sugar. An asterisk marks phosphorothioate; unmarked linkages are phosphodiester. Other units and linkages are bracketed, terminal groups are in braces. A string of capitals states the bases alone. e = 2'-O-(2-methoxyethyl) (MOE); [5mC] = 5-methylcytosine; d = 2'-deoxy (DNA)
Give bare numbers, in %.

# example entries with known answers
# substance, target-system, measured-value
measured = [
    ("327933 (antisense eA*eA*eG*eG*eG*eA*eT*eT*e[5mC]*e[5mC]*eT*eG*eG*eG*eA*eA*eA*eA*e[5mC]*eT*eG*eG*eA*e[5mC]) [compound 327933]", "BJ, B16-F10, T47D, T47Dp53 and HeLa cells", 15.9),
    ("328388 (eT*e[5mC]*e[5mC]*e[5mC]*eA*dT*dA*dG*d[5mC]*dA*dG*dG*dG*d[5mC]*dA*eG*eA*eG*e[5mC]*e[5mC]; antisense) [compound 328388]", "BJ, B16-F10, T47D, T47Dp53 and HeLa cells", 14.5),
    ("327878 (antisense e[5mC]*eT*eA*eG*eT*eG*eG*eT*e[5mC]*e[5mC]*eT*eA*eA*eA*e[5mC]*eA*eT*eT*eT*e[5mC]*eA*e[5mC]) [compound 327878]", "BJ, B16-F10, T47D, T47Dp53 and HeLa cells", 11.9),
    ("327903 (antisense eA*eA*e[5mC]*eT*eA*eT*eA*e[5mC]*eA*eA*e[5mC]*e[5mC]*eT*eA*e[5mC]*eT*eA*e[5mC]*e[5mC]*eT*e[5mC]*eA) [compound 327903]", "BJ, B16-F10, T47D, T47Dp53 and HeLa cells", 13.4),
]

# next substance below
Lab note: measured aneuploid (percentage of cells) of 328644 (eG*eA*e[5mC]*eA*eA*dG*dG*dT*dG*dG*dG*dA*dG*d[5mC]*dG*eA*eG*eT*eG*eG; antisense) [compound 328644] was 17.5
